- System Under Test: T1, ADI-67447
- T1 construct: anti-CD3 antibody made in CHO cells, captured by anti-human Fc
- T1 sequence (VH, as listed by the source limits assumed, chain 1 of 2): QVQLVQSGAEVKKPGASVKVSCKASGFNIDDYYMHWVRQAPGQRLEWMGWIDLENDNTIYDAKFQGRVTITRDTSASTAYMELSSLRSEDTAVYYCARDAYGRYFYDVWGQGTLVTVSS
- T1 sequence (VL, as listed by the source limits assumed, chain 2 of 2): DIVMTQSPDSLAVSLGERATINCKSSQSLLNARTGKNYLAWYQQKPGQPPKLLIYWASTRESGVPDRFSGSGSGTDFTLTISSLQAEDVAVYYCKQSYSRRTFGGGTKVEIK
- Assay Comment: SPR Carterra avidity, yeast anti-ID
Value Kind: Kd (nM)
Reply with just the number (in nM).

Ask: Suppose we examine the binder ADI-34135 (antibody, V domains shown, anti-ID IgG) VH: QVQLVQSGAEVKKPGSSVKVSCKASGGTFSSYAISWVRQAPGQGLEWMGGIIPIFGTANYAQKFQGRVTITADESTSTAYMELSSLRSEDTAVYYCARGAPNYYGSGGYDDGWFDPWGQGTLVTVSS VL: EIVMTQSPGTLSLSPGERATLSCRASQSVSSSYLAWYQQKPGQAPRLLIYGASSRATGIPDRFSGSGSGTDFTLTISRLEPEDFAVYYCQQFGRYPTFGGGTKVEIK ; what Kd value has been reported?
Result: 0.26
